- experiment: Chemical inhibition in human hepatocytes (intrinsic clearance with and without CYP inhibitors)
- Assay type: in vitro ADME
- stated conditions: human, human hepatocyte suspension, 0.5 μM Compound 6, 0.5 mM 1-ABT/1.5 μM tienilic acid; read-out: CLint, PAN CYP

{"compound structure": "C=CC(=O)N1CCN([C@@H]2CCNc3c2nn(-c2ccc(Oc4ccccc4)cc2)c3C(N)=O)CC1", "unit label": "µL/min/1e6 cells", "hepatocyte CLint at 0.5 μM": 8.23}

----------
- study system: BTK (Homo sapiens, UniProt Q06187)
- Construct: purchased Nanosyn, Santa Clara, Calif; host or cells: 293HEK
- Sequence (Q06187 whole entry): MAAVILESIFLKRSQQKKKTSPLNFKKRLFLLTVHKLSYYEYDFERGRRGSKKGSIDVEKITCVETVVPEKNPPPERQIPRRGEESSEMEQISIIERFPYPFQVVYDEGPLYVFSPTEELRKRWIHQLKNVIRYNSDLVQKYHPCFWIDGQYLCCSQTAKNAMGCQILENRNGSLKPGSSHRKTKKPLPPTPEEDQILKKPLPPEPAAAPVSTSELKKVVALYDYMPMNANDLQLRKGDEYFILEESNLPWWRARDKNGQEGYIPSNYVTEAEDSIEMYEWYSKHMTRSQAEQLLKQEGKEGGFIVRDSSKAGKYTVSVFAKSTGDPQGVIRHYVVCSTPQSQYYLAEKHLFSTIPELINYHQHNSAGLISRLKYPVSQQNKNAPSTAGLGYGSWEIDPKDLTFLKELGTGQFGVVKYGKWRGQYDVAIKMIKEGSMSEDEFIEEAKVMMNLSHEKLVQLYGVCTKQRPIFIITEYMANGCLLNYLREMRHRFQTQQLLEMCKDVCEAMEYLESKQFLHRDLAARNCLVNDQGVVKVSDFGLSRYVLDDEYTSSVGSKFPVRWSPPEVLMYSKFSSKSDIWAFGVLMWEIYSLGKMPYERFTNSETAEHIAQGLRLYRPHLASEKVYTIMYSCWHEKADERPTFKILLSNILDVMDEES
- experiment: BTK kinase electrophoretic mobility shift assay (MSA)
- Assay type: biochemical
- stated conditions: 50 μM ATP, 0.5 nM BTK enzyme (Nanosyn-293HEK, WT), 3 hours at 25° C.; all examples except 50, 51, 62 and 63; read-out: BTK IC50
pIC50: −log10 of the molar value.
readout name: pIC50

{"molecule": "C=CC(=O)N1CCN([C@H]2CCNc3c2nn(-c2ccc(Oc4ccccc4)cc2)c3C(N)=O)[C@@H](C)C1 (single isomer, unassigned)", "readout name": "pIC50", "endpoint value": 7.05}
{"molecule": "C=CC(=O)N1CCN([C@@H]2CCNc3c2nn(-c2ccc(Oc4cccc(OC)c4)cc2)c3C(N)=O)CC1", "readout name": "pIC50", "endpoint value": 8.78}
{"molecule": "CN(C)C/C=C/C(=O)N1CCN([C@@H]2CCNc3c2nn(-c2ccc(Oc4ccccc4)cc2)c3C(N)=O)CC1", "readout name": "pIC50", "endpoint value": 7.12}
{"molecule": "C=CC(=O)N1CCC(C2CCNc3c2nn(-c2ccc(Oc4ccc(F)cc4F)cc2)c3C(N)=O)CC1 (centres unmarked)", "readout name": "pIC50", "endpoint value": 8.74}
{"molecule": "C=CC(=O)N1C[C@H](C)N(C2CCNc3c2nn(-c2ccc(Oc4ccccc4)cc2)c3C(N)=O)C[C@H]1C (some centres unmarked)", "readout name": "pIC50", "endpoint value": 6.17}
{"molecule": "C=CC(=O)N1CCN([C@H]2CCNc3c2nn(-c2ccc(Oc4cccc(OC)c4)cc2)c3C(N)=O)CC1", "readout name": "pIC50", "endpoint value": 7.84}
{"molecule": "C=CC(=O)N1CCC(C2CCNc3c2nn(-c2ccc(Oc4ccccc4)cc2OC)c3C(N)=O)CC1 (centres unmarked)", "readout name": "pIC50", "endpoint value": 7.43}
{"molecule": "C=CC(=O)N1CCN([C@H]2CCNc3c2nn(-c2ccc(Oc4ccccc4)cc2)c3C(N)=O)CC1", "readout name": "pIC50", "endpoint value": 7.94}
{"molecule": "C=CC(=O)N1CCN([C@@H]2CCNc3c2nn(-c2ccc(Oc4ccccc4)cc2)c3C(N)=O)CC12CC2", "readout name": "pIC50", "endpoint value": 9.29}
{"molecule": "C=CC(=O)N1[C@@H]2CC[C@H]1CN(C1CCNc3c1nn(-c1ccc(Oc4ccccc4)cc1)c3C(N)=O)C2 (some centres unmarked)", "readout name": "pIC50", "endpoint value": 9.05}
{"molecule": "C=CC(=O)N1C[C@H]2C[C@@H]1CN2C1CCNc2c1nn(-c1ccc(Oc3ccccc3)cc1)c2C(N)=O (some centres unmarked)", "readout name": "pIC50", "endpoint value": 7.61}
{"molecule": "C=CC(=O)N1CCC(C2CCNc3c2nn(-c2ccc(Oc4ccccc4)cc2)c3C(N)=O)C1 (mixture of isomers)", "readout name": "pIC50", "endpoint value": 8.42}
{"molecule": "NC(=O)/C=C/C(=O)N1CCN([C@@H]2CCNc3c2nn(-c2ccc(Oc4ccccc4)cc2)c3C(N)=O)CC1", "readout name": "pIC50", "endpoint value": 7.29}
{"molecule": "C=CC(=O)N1CCN([C@H]2CCNc3c2nn(-c2ccc(Oc4ccc(OC)cc4)cc2)c3C(N)=O)CC1", "readout name": "pIC50", "endpoint value": 6.87}
{"molecule": "C=CC(=O)N1CCC(C2CCNc3c2nn(-c2ccc(Oc4cccc(OC)c4)cc2)c3C(N)=O)CC1 (centres unmarked)", "readout name": "pIC50", "endpoint value": 9.16}
{"molecule": "C=CC(=O)N1CCC(N2CCNc3c2nn(-c2ccc(Oc4ccccc4)cc2)c3C(N)=O)CC1", "readout name": "pIC50", "endpoint value": 9.23}
{"molecule": "C=CC(=O)N1CCN([C@@H]2CCNc3c2nn(-c2ccc(Oc4ccc(OC)cc4)cc2)c3C(N)=O)CC1", "readout name": "pIC50", "endpoint value": 8.48}
{"molecule": "C=CC(=O)N1CCC(C2CCNc3c2nn(-c2ccc(Oc4cccc(C)c4)cc2)c3C(N)=O)CC1 (centres unmarked)", "readout name": "pIC50", "endpoint value": 9.13}
{"molecule": "C=CC(=O)N1CCN([C@@H]2CCNc3c2nn(-c2ccc(Oc4ccccc4OC)cc2)c3C(N)=O)CC1", "readout name": "pIC50", "endpoint value": 8.29}
{"molecule": "CC#CC(=O)N1CCN([C@H]2CCNc3c2nn(-c2ccc(Oc4ccccc4)cc2)c3C(N)=O)CC1 (single isomer, unassigned)", "readout name": "pIC50", "endpoint value": 8.24}
{"molecule": "C=CC(=O)N1CCN(C2CCNc3c2nn(-c2ccc(Oc4ccccc4F)cc2)c3C(N)=O)CC1 (centres unmarked)", "readout name": "pIC50", "endpoint value": 8.45}
{"molecule": "C=CC(=O)N1CC2CC(C1)N2C1CCNc2c1nn(-c1ccc(Oc3ccccc3)cc1)c2C(N)=O (centres unmarked)", "readout name": "pIC50", "endpoint value": 7.80}
{"molecule": "C=CC(=O)N1CCN([C@@H]2CCNc3c2nn(-c2ccc(Oc4cccc(C5CC5)c4)cc2)c3C(N)=O)CC1", "readout name": "pIC50", "endpoint value": 9.17}
{"molecule": "C=CC(=O)N1CCN([C@@H]2CCNc3c2nn(-c2ccc(Oc4cc(F)cc(F)c4)cc2)c3C(N)=O)CC1", "readout name": "pIC50", "endpoint value": 7.11}
{"molecule": "C=CC(=O)N1CCN(C2CCNc3c2nn(-c2ccc(Oc4ccccc4)cc2)c3C(N)=O)C[C@H]1C (some centres unmarked)", "readout name": "pIC50", "endpoint value": 7.93}
{"molecule": "C=CC(=O)N1CCN([C@@H]2CCNc3c2nn(-c2ccc(Oc4ccccc4)cc2)c3C(N)=O)CC1", "readout name": "pIC50", "endpoint value": 8.96}
{"molecule": "C=CC(=O)N1CCN([C@@H]2CCNc3c2nn(-c2ccc(Oc4cccc(C)c4)cc2)c3C(N)=O)CC1", "readout name": "pIC50", "endpoint value": 9.10}
{"molecule": "CC#CC(=O)N1CCC(C2CCNc3c2nn(-c2ccc(Oc4ccccc4)cc2)c3C(N)=O)CC1 (centres unmarked)", "readout name": "pIC50", "endpoint value": 8.39}
{"molecule": "C=CC(=O)N1CCN(C2CCNc3c2nn(-c2ccc(Oc4ccccc4)cc2)c3C(N)=O)C[C@@H]1C (some centres unmarked)", "readout name": "pIC50", "endpoint value": 8.93}

----------
- study system: Phosphorylation of Y223 of BTK (Homo sapiens, UniProt Q06187)
- Sequence (Q06187 whole entry): as above
- experiment: Whole blood compound screening, phosphorylation of Y223 site of BTK (MSD assay)
- stated conditions: healthy human whole blood, 2 hours at 37° C., 3 separate donors; read-out: WB BTK-pY223 EC50
readout name: EC50 (µM)

{"compound": "C=CC(=O)N1CCN([C@@H]2CCNc3c2nn(-c2ccc(Oc4cccc(OC)c4)cc2)c3C(N)=O)CC1", "study system": "Phosphorylation of Y223 of BTK (Homo sapiens, UniProt Q06187)", "endpoint value": 0.399}
{"compound": "C=CC(=O)N1CCN([C@@H]2CCNc3c2nn(-c2ccc(Oc4cccc(C(F)(F)F)c4)cc2)c3C(N)=O)CC1", "study system": "Phosphorylation of Y223 of BTK (Homo sapiens, UniProt Q06187)", "endpoint value": 0.0342}
{"compound": "C=CC(=O)N1CC(N2CCNc3c2nn(-c2ccc(Oc4cccc(F)c4F)cc2)c3C(N)=O)C1", "study system": "Phosphorylation of Y223 of BTK (Homo sapiens, UniProt Q06187)", "endpoint value": 0.0855}
{"compound": "C=CC(=O)N1[C@@H]2CC[C@H]1CN(C1CCNc3c1nn(-c1ccc(Oc4ccccc4)cc1)c3C(N)=O)C2 (stereo partly drawn)", "study system": "Phosphorylation of Y223 of BTK (Homo sapiens, UniProt Q06187)", "endpoint value": 0.128}
{"compound": "C=CC(=O)N1CC(N2CCNc3c2nn(-c2ccc(Oc4ccc(F)cc4F)cc2)c3C(N)=O)C1", "study system": "Phosphorylation of Y223 of BTK (Homo sapiens, UniProt Q06187)", "endpoint value": 0.0751}
{"compound": "C=CC(=O)N1CCC([C@H]2CCNc3c2nn(-c2ccc(Oc4ccccc4)cc2)c3C(N)=O)CC1", "study system": "Phosphorylation of Y223 of BTK (Homo sapiens, UniProt Q06187)", "endpoint value": 0.0357}
{"compound": "C=CC(=O)N1C2CC1CN([C@@H]1CCNc3c1nn(-c1ccc(Oc4ccccc4)cc1)c3C(N)=O)C2", "study system": "Phosphorylation of Y223 of BTK (Homo sapiens, UniProt Q06187)", "endpoint value": 0.255}
{"compound": "C=CC(=O)N1CCC(C2CCNc3c2nn(-c2ccc(Oc4cccc(OC)c4)cc2)c3C(N)=O)CC1 (stereo not drawn)", "study system": "Phosphorylation of Y223 of BTK (Homo sapiens, UniProt Q06187)", "endpoint value": 0.0556}
{"compound": "C=CC(=O)N1CCN([C@@H]2CCNc3c2nn(-c2ccc(Oc4cccc(C)c4)cc2)c3C(N)=O)CC1", "study system": "Phosphorylation of Y223 of BTK (Homo sapiens, UniProt Q06187)", "endpoint value": 0.225}
{"compound": "C=CC(=O)N1CCN([C@@H]2CCNc3c2nn(-c2ccc(Oc4cccc(F)c4F)cc2)c3C(N)=O)CC1", "study system": "Phosphorylation of Y223 of BTK (Homo sapiens, UniProt Q06187)", "endpoint value": 0.0315}
{"compound": "C=CC(=O)N1CCN([C@@H]2CCNc3c2nn(-c2ccc(Oc4ccccc4)cc2)c3C(N)=O)CC1", "study system": "Phosphorylation of Y223 of BTK (Homo sapiens, UniProt Q06187)", "endpoint value": 0.0241}
{"compound": "C=CC(=O)N1C2CC1CN([C@H]1CCNc3c1nn(-c1ccc(Oc4ccccc4)cc1)c3C(N)=O)C2", "study system": "Phosphorylation of Y223 of BTK (Homo sapiens, UniProt Q06187)", "endpoint value": 0.0217}
{"compound": "C=CC(=O)N1CCN([C@@H]2CCNc3c2nn(-c2ccc(Oc4ccc(OC(F)(F)F)cc4)cc2)c3C(N)=O)CC1", "study system": "Phosphorylation of Y223 of BTK (Homo sapiens, UniProt Q06187)", "endpoint value": 2.03}
{"compound": "C=CC(=O)N1CCN([C@@H]2CCNc3c2nn(-c2ccc(Oc4ccccc4C)cc2)c3C(N)=O)CC1", "study system": "Phosphorylation of Y223 of BTK (Homo sapiens, UniProt Q06187)", "endpoint value": 0.315}
{"compound": "C=CC(=O)N1CCN([C@@H]2CCNc3c2nn(-c2ccc(Oc4cccc(OC(F)(F)F)c4)cc2)c3C(N)=O)CC1", "study system": "Phosphorylation of Y223 of BTK (Homo sapiens, UniProt Q06187)", "endpoint value": 0.525}

Provenance of the data: patent US20220213092A1
